The following substances are shown together with reported pEC50 values.
target: human VPAC1 (Homo sapiens, UniProt P32241); experiment: DiscoveRx cAMP in vitro potency, human VPAC1; format: cell-based; parameters: expressed in transfected cells; host or cells: CHO-PO, transient transfection (Lipofectamine)
Sequence (P32241 31-457): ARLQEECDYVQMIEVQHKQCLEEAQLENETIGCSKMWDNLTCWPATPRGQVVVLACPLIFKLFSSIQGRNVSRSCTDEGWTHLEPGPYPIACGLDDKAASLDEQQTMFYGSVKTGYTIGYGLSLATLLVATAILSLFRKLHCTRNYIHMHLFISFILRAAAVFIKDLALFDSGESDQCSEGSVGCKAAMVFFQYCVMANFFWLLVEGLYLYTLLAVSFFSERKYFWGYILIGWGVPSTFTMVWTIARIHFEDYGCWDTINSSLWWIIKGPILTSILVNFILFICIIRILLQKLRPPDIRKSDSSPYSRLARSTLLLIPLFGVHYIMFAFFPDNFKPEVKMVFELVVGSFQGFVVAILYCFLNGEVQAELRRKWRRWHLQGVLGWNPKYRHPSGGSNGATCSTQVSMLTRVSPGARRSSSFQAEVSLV
Where no end group is shown, it is not given here.
Remember, pEC50 is on a log scale: it is -log10 of the molar concentration.

>>> df
                                  substance  recorded_value
0  HSDAVFTDNYTRLRKQVAAKKYLQSIKNSRTSPPP-NH2 [Agonist P5]            8.96

# ---- query substance ----
For the substance Ac-HSDAVFTDNYTRLRKQVAAKKYLQSIKNSRTSPPP-NH2 [Agonist P32] , report pEC50.
8.08

---

target: human PAC1 (Homo sapiens); experiment: biochemical
Sequence (P41586 21-468): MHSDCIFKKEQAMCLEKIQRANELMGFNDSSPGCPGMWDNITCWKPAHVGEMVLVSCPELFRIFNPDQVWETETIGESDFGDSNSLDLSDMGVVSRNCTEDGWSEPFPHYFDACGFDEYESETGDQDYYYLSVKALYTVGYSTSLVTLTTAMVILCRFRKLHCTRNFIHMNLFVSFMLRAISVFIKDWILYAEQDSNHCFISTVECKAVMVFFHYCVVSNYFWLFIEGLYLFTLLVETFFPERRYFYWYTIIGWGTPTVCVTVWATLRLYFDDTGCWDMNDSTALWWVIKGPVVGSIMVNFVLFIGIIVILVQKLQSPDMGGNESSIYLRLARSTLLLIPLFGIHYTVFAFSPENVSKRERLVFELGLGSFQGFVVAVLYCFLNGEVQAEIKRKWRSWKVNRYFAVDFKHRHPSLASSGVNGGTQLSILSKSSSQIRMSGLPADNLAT
Where no end group is shown, it is not given here.
The following substances are shown together with reported pIC50 values.
Remember, pIC50 is on a log scale: it is -log10 of the molar concentration.

Guide cases for pIC50, answers given:
>>> df
                                  substance  recorded_value
0  HSDAVFTDNYTRLRKAAAAKKYLQSIKNSRTSPPP-NH2 [Agonist P97]            7.06
1  HSDAVFTDNYTRLRKQAAAKKYLQSIKNSRTSPPP-NH2 [Agonist P96]            6.82

# ---- query substance ----
For the substance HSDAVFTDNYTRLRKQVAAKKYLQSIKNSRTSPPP-NH2 [Agonist P5] , report pIC50.
6.63

---

biological target: human VPAC1 (Homo sapiens, UniProt P32241); test: Filter binding assay, human VPAC1 membranes, 125I-labeled VIP tracer; design: expressed in transfected cells
Where no end group is shown, it is not given here.
The following substances are shown together with reported pIC50 values.
Remember, pIC50 is on a log scale: it is -log10 of the molar concentration.

                                  substance  recorded_value
0  HSDAVFTDNYTRLRKAAAAKKYLQSIKNSRTSPPP-NH2 [Agonist P97]            7.01
1  Ac-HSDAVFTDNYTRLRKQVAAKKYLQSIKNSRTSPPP-NH2 [Agonist P32]            7.42
2  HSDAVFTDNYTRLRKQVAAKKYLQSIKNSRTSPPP-NH2 [Agonist P5]            7.25

# ---- query substance ----
Give the observed pIC50 of HSDAVFTDNYTRLRKQAAAKKYLQSIKNSRTSPPP-NH2 [Agonist P96] for human VPAC1 (Homo sapiens, UniProt P32241).
7.05

---

target: human VPAC2 (Homo sapiens, UniProt P41587); construct: expressed in transfected cells; experiment: Filter binding assay, human VPAC2 membranes, 125I-labeled VIP tracer
Sequence (P41587 24-438): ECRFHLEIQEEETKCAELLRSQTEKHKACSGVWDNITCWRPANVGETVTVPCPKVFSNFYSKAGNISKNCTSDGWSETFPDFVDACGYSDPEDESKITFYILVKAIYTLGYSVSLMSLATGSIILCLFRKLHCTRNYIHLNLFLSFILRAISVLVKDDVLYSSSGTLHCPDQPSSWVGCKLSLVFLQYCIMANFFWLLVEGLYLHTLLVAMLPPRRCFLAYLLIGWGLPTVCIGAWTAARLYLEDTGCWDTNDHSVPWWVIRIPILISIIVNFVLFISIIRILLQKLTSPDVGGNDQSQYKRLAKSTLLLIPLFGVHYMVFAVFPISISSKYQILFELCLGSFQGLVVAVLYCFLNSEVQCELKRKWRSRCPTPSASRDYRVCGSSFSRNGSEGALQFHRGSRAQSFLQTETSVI
Where no end group is shown, it is not given here.
measure-name: IC50 (nM)
// note: answer is a bare numeric in nM

                                  substance  recorded_value
0  HSDAVFTDNYTRLRKAAAAKKYLQSIKNSRTSPPP-NH2 [Agonist P97]            0.82
1  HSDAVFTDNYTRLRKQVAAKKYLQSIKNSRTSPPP-NH2 [Agonist P5]            0.67
2  HSDAVFTDNYTRLRKQAAAKKYLQSIKNSRTSPPP-NH2 [Agonist P96]            0.58

For the substance Ac-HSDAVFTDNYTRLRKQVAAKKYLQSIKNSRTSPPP-NH2 [Agonist P32] , report IC50.
0.89
